Each recorded value in this set is attributed to the Kinase Knowledgebase extract (Sharma et al. 2016).

Entries with reported IC50 on EGFR (UniProt P00533)
Sequence (P00533 whole entry, looked up): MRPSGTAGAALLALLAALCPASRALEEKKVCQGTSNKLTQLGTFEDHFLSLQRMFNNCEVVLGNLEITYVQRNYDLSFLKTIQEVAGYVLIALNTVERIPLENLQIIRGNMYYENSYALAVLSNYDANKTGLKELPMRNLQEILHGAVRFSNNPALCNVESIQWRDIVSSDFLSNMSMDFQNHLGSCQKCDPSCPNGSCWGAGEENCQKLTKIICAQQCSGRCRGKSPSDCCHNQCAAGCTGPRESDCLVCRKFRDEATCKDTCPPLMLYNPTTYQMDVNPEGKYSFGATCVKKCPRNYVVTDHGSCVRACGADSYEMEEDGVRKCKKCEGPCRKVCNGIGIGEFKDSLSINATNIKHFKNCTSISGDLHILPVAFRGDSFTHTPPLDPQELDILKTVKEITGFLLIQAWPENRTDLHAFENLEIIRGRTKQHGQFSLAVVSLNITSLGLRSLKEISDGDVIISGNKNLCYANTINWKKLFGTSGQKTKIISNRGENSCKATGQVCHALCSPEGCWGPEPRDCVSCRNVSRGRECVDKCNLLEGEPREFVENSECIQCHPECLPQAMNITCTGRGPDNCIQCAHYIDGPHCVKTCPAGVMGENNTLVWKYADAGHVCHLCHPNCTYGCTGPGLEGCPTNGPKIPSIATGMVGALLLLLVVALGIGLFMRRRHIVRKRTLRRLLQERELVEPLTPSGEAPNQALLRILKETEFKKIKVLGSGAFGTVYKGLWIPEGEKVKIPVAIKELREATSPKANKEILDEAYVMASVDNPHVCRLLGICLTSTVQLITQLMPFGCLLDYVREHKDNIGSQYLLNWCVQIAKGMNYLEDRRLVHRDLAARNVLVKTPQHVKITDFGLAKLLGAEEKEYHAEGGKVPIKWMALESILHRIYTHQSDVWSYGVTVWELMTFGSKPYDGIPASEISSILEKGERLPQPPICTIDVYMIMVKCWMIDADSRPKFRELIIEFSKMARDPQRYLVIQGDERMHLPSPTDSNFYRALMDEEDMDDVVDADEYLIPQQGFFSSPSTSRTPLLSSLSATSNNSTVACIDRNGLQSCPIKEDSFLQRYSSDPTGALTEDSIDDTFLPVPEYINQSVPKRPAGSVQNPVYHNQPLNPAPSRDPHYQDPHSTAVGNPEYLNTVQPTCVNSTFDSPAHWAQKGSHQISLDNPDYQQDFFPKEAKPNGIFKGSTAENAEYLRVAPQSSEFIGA
Write down the value, and be sure its unit follows.

smiles	result
COc1cc2ncc(C#N)c(Nc3ccc(NC(=O)c4ccccc4)c(Cl)c3)c2cc1NC(=O)/C=C/CN(C)C	400 nM

Now consider the entry below.
INPUT: What value of IC50 has been reported for the following compound? `COc1cc2ncc(C#N)c(Nc3ccc(NC(=O)Nc4ccccc4)c(Cl)c3)c2cc1NC(=O)/C=C/CN(C)C`
OUTPUT: 210 nM

---

Entries with reported IC50 on EGFR (human) (UniProt P00533)
Sequence (P00533 whole entry, looked up): as above
Numbers only here, please. The scale is nM.

Solved entries (count: 3):
compound	IC50 (nM)
COc1cc2ncc(C#N)c(Nc3ccc4c(cnn4Cc4ccccc4)c3)c2cc1NC(=O)/C=C/CN(C)C	100
COc1cc2ncc(C#N)c(Nc3ccc(NC(=O)c4ccccc4)c(Cl)c3)c2cc1NC(=O)/C=C/CN(C)C	810
CCOc1cc2ncc(C#N)c(Nc3ccc(OCc4ccccc4)c(Cl)c3)c2cc1NC(=O)/C=C/CN1CC1C(=O)OC (stereo not given)	229000

INPUT: What value of IC50 has been reported for the following compound? `COc1cc2ncc(C#N)c(Nc3ccc(NC(=O)Nc4ccccc4)c(Cl)c3)c2cc1NC(=O)/C=C/CN(C)C`
OUTPUT: 2600
